# IC50 or % Inhibition TF-VIIa (30 µM) listing for each entry below
# TARGET: TF-VIIa (Homo sapiens)
# Construct: 2nM recombinant human factor VIIa; purchased American Diagnostica, Greenwich CT; host or cells: soluble TF made in house in E. coli
# Sequence (P08709 213-466 limits assumed): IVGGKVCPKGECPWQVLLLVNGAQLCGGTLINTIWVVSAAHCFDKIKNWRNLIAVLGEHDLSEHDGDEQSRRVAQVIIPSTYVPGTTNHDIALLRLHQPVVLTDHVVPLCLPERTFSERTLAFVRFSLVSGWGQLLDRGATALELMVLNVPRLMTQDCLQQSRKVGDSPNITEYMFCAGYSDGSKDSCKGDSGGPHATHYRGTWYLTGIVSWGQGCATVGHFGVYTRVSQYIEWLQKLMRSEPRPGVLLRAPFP
# Sequence (P08709 61-212 limits assumed): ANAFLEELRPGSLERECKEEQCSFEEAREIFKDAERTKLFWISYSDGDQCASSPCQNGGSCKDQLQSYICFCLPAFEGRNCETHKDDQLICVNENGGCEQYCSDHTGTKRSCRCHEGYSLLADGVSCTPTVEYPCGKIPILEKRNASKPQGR
# Sequence (P13726 33-251 partner limits assumed): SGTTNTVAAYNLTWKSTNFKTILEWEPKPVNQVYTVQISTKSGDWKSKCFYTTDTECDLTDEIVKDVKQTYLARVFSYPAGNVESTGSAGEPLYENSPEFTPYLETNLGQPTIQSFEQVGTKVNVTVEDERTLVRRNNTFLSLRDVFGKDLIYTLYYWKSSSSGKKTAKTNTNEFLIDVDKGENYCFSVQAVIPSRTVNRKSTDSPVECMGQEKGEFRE
# ASSAY_INFO: TF-VIIa Assay
# Format: biochemical
# ASSAY_CONDITIONS: % inhibition at 30 µM
MEASURE: IC50 or % Inhibition TF-VIIa (30 µM)

1. N=C(N)c1ccc(CNC(=O)Cn2c(-c3ccc(-c4ccccc4)cc3)c(Cl)nc(NCCc3ccc(Cl)cc3)c2=O)cc1: 0%@30
2. CCCCNc1nc(Cl)c(-c2ccccc2)n(CC(=O)NCc2ccc(C(=N)N)cc2)c1=O: 33%
3. Nc1cccc(-c2c(Cl)nc(NC3CCC3)c(=O)n2CC(=O)NCCc2ccccc2)c1: 5%@30
4. Nc1cccc(-c2c(Cl)nc(NC3CCC3)c(=O)n2CC(=O)NCc2ccccc2)c1: 6%@30
5. N=C(N)c1ccc(CNC(=O)Cn2c(-c3ccc(-c4ccccc4)cc3)c(Cl)nc(NCCc3cccnc3)c2=O)cc1: 8%@30
